# System: Staphylococcus aureus
# ASSAY INFO: Antimicrobial activity against Staphylococcus aureus MTCC 96 assessed as growth inhibition after 24 hrs by agar well diffusion method
# Format: functional
# RUN PARAMETERS: MTCC 96, 24 h
Give MIC for every item shown.
# answer = value followed by unit

Could you tell me which MIC is on file for "CCOC(=O)c1sc(-c2cn(-c3ccccc3)nc2-c2ccc(Cl)cc2)nc1-c1ccc(F)cc1" ? 50 µg/mL

So what's the measured MIC for this one? "COc1ccc(-c2nn(-c3ccccc3)cc2-c2nc(-c3ccc(F)cc3)c(C(=O)O)s2)cc1" 50 µg/mL

Form field: reported MIC of "O=C(O)c1sc(-c2cn(-c3ccccc3)nc2-c2ccc(F)cc2)nc1-c1ccccc1" 25 µg/mL

Returns the measured MIC for the input molecule. Input: "O=C(O)c1sc(-c2cn(-c3ccccc3)nc2-c2ccccc2)nc1-c1ccccc1" 12.5 µg/mL

For the molecule shown here, "COc1ccc(-c2nn(-c3ccccc3)cc2-c2nc(-c3ccc(Cl)cc3)c(C(=O)O)s2)cc1" , give the reported MIC. 6.25 µg/mL

Where do the numbers come from? From ChEMBL document CHEMBL3396992.
